Test System: pm3 (human, sulfated tyrosine at Y17)
Sequence (peptide, as listed by the source): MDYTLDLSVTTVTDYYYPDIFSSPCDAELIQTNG
Assay Text: ELISA on coated peptide [cont.]

{"Binder": "3-33 (antibody, V domains shown) VH: EVQLQQSGPELVKPGASVKISCKTSGYTFTEYTIHWVKQSHGESLEWVGGINPNNGNTRYDQKFKGKATLTIDKSSSPAYMELRSLTSEDSAVYYCARVARSSGSGPYAMDYWGQGTSVTVSS VL: DVVMTQTPLSLPVSLGDQASISCRCTQSLLHTNGDTYLHWYLQKPGQSPKLLIYKVSNRFSGVPDRFSGSGSGTDFTLKISRVEAEDLGVYFCSQSTHVPYTFGGGTKLEIK", "binding result": "binds"}
{"Binder": "3-5 (antibody, V domains shown) VH: EVQLLESGGGLVQPKGSLKLSCAASGFTFNPYAMNWVRQAPGRGLEWVARIRSKSNNYATYYADSVKDRFTISRDDSQDMLYLQMNNLKTEDTAMYYCVRGREAYYRYDGDYYAMDYWGQGTSVTVSS VL: DIVMTQAAPSVPVTPGESVSISCRSSKSLLHSNGNTYLYWFLQRPGQSPQLLIYRMSNLASGVPDRFSGSGSGTAFTLRISRVEAEDVGVYYCMQHLEYPFTFGSGTKLEIK", "binding result": "binds"}
